Study Target: inosine-guanosine kinase (Escherichia coli, UniProt P0AEW6)
Construct: made in house; host or cells: Escherichia coli
Sequence (P0AEW6 whole entry): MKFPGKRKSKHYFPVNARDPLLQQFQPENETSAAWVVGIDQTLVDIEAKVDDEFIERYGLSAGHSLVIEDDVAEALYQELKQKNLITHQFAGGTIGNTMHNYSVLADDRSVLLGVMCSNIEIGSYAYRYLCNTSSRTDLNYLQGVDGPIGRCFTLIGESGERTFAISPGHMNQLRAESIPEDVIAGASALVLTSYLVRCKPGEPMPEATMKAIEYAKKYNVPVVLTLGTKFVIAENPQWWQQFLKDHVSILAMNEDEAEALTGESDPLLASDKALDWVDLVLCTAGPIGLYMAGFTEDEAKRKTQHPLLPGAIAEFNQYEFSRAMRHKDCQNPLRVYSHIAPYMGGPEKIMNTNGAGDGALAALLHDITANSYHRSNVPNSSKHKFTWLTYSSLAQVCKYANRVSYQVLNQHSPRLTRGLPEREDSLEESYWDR
Protocol Notes: Substrate specificity (phosphate-donor / phosphate-acceptor)
Assay type: biochemical
Condition Info: 5 mM phosphate source instead of ATP, 300 mM KCl, 30° C., inosine as acceptor
Quantity: suitability as phosphate-donor (in words)

- Compound: "Nc1ncnc2c1ncn2[C@H]1C[C@H](O)[C@@H](COP(=O)(O)OP(=O)(O)OP(=O)(O)O)O1 [dATP, deoxyadenosine triphosphate]"
  Study Target: "inosine-guanosine kinase (Escherichia coli, UniProt P0AEW6)"
  Observed Value: "good substrate"
- Compound: "Nc1ncnc2c1ncn2[C@@H]1O[C@H](COP(=O)(O)OP(=O)(O)OP(=O)(O)O)[C@@H](O)[C@H]1O [ATP, adenosine triphosphate]"
  Study Target: "inosine-guanosine kinase (Escherichia coli, UniProt P0AEW6)"
  Observed Value: "good substrate"
